Target: substance P receptor (Homo sapiens)
Construct: The receptors were prepared from human lymphoblast cells (IM-9); endogenous in cells
Sequence (P25103 whole entry): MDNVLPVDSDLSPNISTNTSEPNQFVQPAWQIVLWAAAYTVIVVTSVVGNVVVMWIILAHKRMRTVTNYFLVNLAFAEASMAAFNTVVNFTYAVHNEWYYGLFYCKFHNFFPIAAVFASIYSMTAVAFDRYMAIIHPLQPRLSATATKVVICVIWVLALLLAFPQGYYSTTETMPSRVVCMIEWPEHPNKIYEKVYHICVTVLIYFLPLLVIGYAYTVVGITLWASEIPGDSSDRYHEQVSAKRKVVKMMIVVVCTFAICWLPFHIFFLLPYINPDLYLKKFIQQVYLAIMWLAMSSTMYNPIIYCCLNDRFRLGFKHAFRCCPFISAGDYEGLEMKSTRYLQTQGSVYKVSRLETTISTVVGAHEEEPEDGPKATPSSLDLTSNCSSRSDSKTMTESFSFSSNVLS
Test: Radioligand receptor binding inhibitory activity (binding inhibitory activity using receptor from human lymphoblast cells (IM-9))
Details: 125I-BHSP (substance P labeled with [125I]), receptor from IM-9 cells, 25° C. 30 min
Where a name gives a salt, the structure may show the parent alone.
MEASUREMENT_LABEL: pIC50
Here pIC50 is given on a logarithmic scale as minus log10 of the concentration in mol/L.

[[record]]
molecule = "COc1ccc(-n2nnnc2C(F)(F)F)cc1CN[C@H]1CCN(C(=O)C(O)NC(C)=O)C[C@H]1c1ccccc1 (single isomer, unassigned) [Example 13]"
result_number = 10.21

[[record]]
molecule = "COc1ccc(-n2nnnc2C(F)(F)F)cc1CN[C@H]1CCN(C(=O)CNC(C)=O)C[C@H]1c1ccccc1 [Example 20]"
result_number = 10.77

[[record]]
molecule = "COc1ccc(-n2nnnc2C(F)(F)F)cc1CN[C@H]1CCN(C(C)=O)C[C@H]1c1ccccc1 [Example 6, monohydrochloride]"
result_number = 10.59


# ---- query molecule ----
Entry COc1ccc(-n2nnnc2C(F)(F)F)cc1CN[C@H]1CCN(C(=O)C(O)NC(C)=O)C[C@H]1c1ccccc1 (single isomer, unassigned) [Example 12] : reported pIC50 = ?
10.80

----------
Biological target: substance P receptor (Homo sapiens)
Construct: The receptors were prepared from human lymphoblast cells (IM-9); endogenous in cells
Test: Radioligand receptor binding inhibitory activity (binding inhibitory activity using receptor from human lymphoblast cells (IM-9))
Settings: 125I-BHSP (substance P labeled with [125I]), receptor from IM-9 cells, 25° C. 30 min
Structures can show the parent of a compound that is named as a salt.
// NB: equality with 0.02 nM counts as not met; only IC50 strictly below is met

Answered cases to consult:
[[record]]
molecule = "COc1ccc(-n2nnnc2C(F)(F)F)cc1CN[C@H]1CCN(C(=O)CN2C(=O)CCC2=O)C[C@H]1c1ccccc1 [Example 7, monohydrochloride]"
assay_target = "substance P receptor (Homo sapiens)"
category_label = "met"

[[record]]
molecule = "COc1ccc(-n2nnnc2C(F)(F)F)cc1CN[C@H]1CCN(C(=O)CS(C)(=O)=O)C[C@H]1c1ccccc1 [Example 8, monohydrochloride]"
assay_target = "substance P receptor (Homo sapiens)"
category_label = "not met"


Is IC50 of CCC(=O)NCC(=O)N1CC[C@H](NCc2cc(-n3nnnc3C(F)(F)F)ccc2OC)[C@H](c2ccccc2)C1 [Example 9, monohydrochloride] strictly below 0.02 nM?
met

Next up: COc1ccc(-n2nnnc2C(F)(F)F)cc1CN[C@H]1CCN(C(=O)C2CCN(S(C)(=O)=O)CC2)C[C@H]1c1ccccc1 [Example 11, monohydrochloride]
not met

Next up: COc1ccc(-n2nnnc2C(F)(F)F)cc1CN[C@H]1CCN(C(=O)CNC=O)C[C@H]1c1ccccc1
met

Next up: COc1ccc(-n2nnnc2C(F)(F)F)cc1CN[C@H]1CCN(C(=O)C2CCNCC2)C[C@H]1c1ccccc1 [Example 10, dihydrochloride]
met
